Each entry below carries its recorded Selectivity HCT 116-WT/ HCT116 MTAP KO.
# Tested on: HCT116 MTAP KO cells
# ASSAY_PROCEDURE: Inhibitory activity against cell proliferation (CellTiter Glo, 6 days), HCT116 MTAP KO
# Assay type: cell-based
# TEST_CONDITIONS: ratio of IC50 HCT116-WT / HCT116 MTAP KO
# Experimental: HCT116-WT (ATCC, CCL-247) and HCT116 MTAP KO (Nanjing Cobioer, CBP75002) cells were seeded into white low-transparency sterile 96-well cell culture plates at a density of 250 cells per well respectively, and the culture medium was McCoy's 5A Medium+10% FBS. The plates were placed under the condition of 37°C and 5% CO2 to be cultured overnight. […] The IC50 values for inhibition of the compounds on cell viability were calculated in X1fit 5.0 software. […]
OBSERVED_PROPERTY: Selectivity HCT 116-WT/ HCT116 MTAP KO

> print(dat)
                                    compound  numeric.result
 1  Cc1cc2cc(C(=O)N(Cc3ccc(Br)cn3)N(C)c3ncccn3)ccc2nc1N           40.08
 2  Cc1cc2cc(C(=O)N(Cc3ccc(-c4cnn(CF)c4)cn3)N(C)c3ncccn3)ccc2nc1N           26.28
 3  Cc1cc2cc(C(=O)N(Cc3ccc(Br)cn3)N(C)c3ncccc3C(F)(F)F)ccc2nc1N           11.80
 4  Cc1ccc(-c2ccc(CN(C(=O)c3ccc4nc(N)c(C)cc4c3)N(C)c3ncccn3)nc2)cn1           21.48
 5  [2H]C([2H])([2H])n1ncc2c(N)nc3cc(C)c(C(=O)N4CC(C)CN4c4ncccc4F)cc3c21 (stereo not shown)           44.34
 6  CC(C)c1cc2cc(C(=O)N(Cc3ccc(C(F)(F)F)cn3)N(C)c3ncccn3)ccc2nc1N           20.73
 7  Cc1cc2cc(C(=O)N(Cc3ccc(-c4ccccn4)cn3)N(C)c3ncccn3)ccc2nc1N           26.76
 8  Cc1cc2cc(C(=O)N(Cc3ccc(-c4nncs4)cn3)N(c3ncccn3)C3CC3)ccc2nc1N           20.00
 9  Cc1cc2nc(N)c3cnn(C)c3c2cc1C(=O)N1CC(F)(F)CN1c1ncccc1F           32.11
10  Cc1cc2cc(C(=O)N(Cc3ccc(-c4cnn(CC(F)(F)F)c4)cn3)N(C)c3ncccn3)ccc2nc1N           24.03
11  COC1(c2ccc(CN(C(=O)c3ccc4nc(N)c(C)cc4c3)N(C)c3ncccn3)nc2)COC1           17.71
12  CN(c1ncccn1)N(Cc1ccc(C(F)(F)F)cn1)C(=O)c1ccc2nc(N)c(C3CC3)cc2c1           25.64
13  Cc1cc2nc(N)c3cnn(C)c3c2cc1C(=O)N1CCCN1c1ncc(-c2cscn2)cc1F           41.12
14  Cc1cc2cc(C(=O)N(Cc3ccc(C(F)(F)F)cn3)N(C)c3ncc4[nH]ccc4n3)ccc2nc1N           17.00
15  COC1CN(C(=O)c2cc3c(cc2C)nc(N)c2cnn(C)c23)N(c2ncc(F)cc2F)C1 (stereo not shown)           18.00
16  Cc1cc2cc(C(=O)N(Cc3ccc(C(F)(F)F)cn3)N(C)c3ccccc3F)ccc2nc1N           27.47
